// data source = patent US7361349B2

test system: peptides used for immunization; experiment: Peptide antibodies ELISA of antisera; assay type: in vivo, pig; details: Table 3; mean titer against the peptide used for immunization, 10 wpv
Non-standard residues stand in square brackets, D forms with d. pGlu = O=C1CC[C@@H](C(=O)O)N1
Reported anti peptide titer at 10 wpv by item:

Solved cases below.
1. G10A-G6k-GnRH-tandem ([pGlu]HWSY[dK]LRPAQHWSY[dK]LRPAC-NH2; also: dimerized through Cys 21) ... 3.19
2. P9A-G6k-GnRH-tandem-dimer conjugate ([pGlu]HWSY[dK]LRAGQHWSY[dK]LRAGC-NH2; also: dimerized through Cys 21, ovalbumin conjugate) ... 2.62
3. S4A-G6k-GnRH-tandem ([pGlu]HWAY[dK]LRPGQHWAY[dK]LRPGC-NH2; also: dimer via Cys21) ... 3.19
4. Y5A-G6k-GnRH-tandem ([pGlu]HWSA[dK]LRPGQHWSA[dK]LRPGC-NH2; also: dimer via Cys21) ... 2.92
5. R8A-G6k-GnRH-tandem ([pGlu]HWSY[dK]LAPGQHWSY[dK]LAPGC-NH2; also: dimer via Cys21) ... 3.34
6. L7A-G6k-GnRH-tandem ([pGlu]HWSY[dK]ARPGQHWSY[dK]ARPGC-NH2; also: dimer via Cys21) ... 3.52

Please examine the following record next.
Give the value of anti peptide titer at 10 wpv reported for the following: pE1A-G6k-GnRH-tandem-dimer OVA conjugate (Ac-AHWSY[dK]LRPGAHWSY[dK]LRPGC-NH2; also: dimerized through Cys 21, ovalbumin conjugate)
3.24

====

tested on: Male piglets; test: Immunocastration of pigs: testis size and testis weight after immunization; format: in vivo, pig; conditions: Table 2; after slaughter at 13 wpv
Non-standard residues stand in square brackets, D forms with d. pGlu = O=C1CC[C@@H](C(=O)O)N1
Reported testis weight (g) (median (range)) by item:

1) P9A-G6k-GnRH-tandem-dimer conjugate ([pGlu]HWSY[dK]LRAGQHWSY[dK]LRAGC-NH2; also: dimerized through Cys 21, ovalbumin conjugate) ... 23 (8-300) g
2) G10A-G6k-GnRH-tandem ([pGlu]HWSY[dK]LRPAQHWSY[dK]LRPAC-NH2; also: dimerized through Cys 21) ... 14 (11-39) g
3) L7A-G6k-GnRH-tandem ([pGlu]HWSY[dK]ARPGQHWSY[dK]ARPGC-NH2; also: dimer via Cys21) ... 20 (12-195) g
4) S4A-G6k-GnRH-tandem ([pGlu]HWAY[dK]LRPGQHWAY[dK]LRPGC-NH2; also: dimer via Cys21) ... 36 (10-69) g
5) R8A-G6k-GnRH-tandem ([pGlu]HWSY[dK]LAPGQHWSY[dK]LAPGC-NH2; also: dimer via Cys21) ... 15 (10-19) g
6) Y5A-G6k-GnRH-tandem ([pGlu]HWSA[dK]LRPGQHWSA[dK]LRPGC-NH2; also: dimer via Cys21) ... 44 (15-235) g

Please examine the following record next.
Give the value of testis weight (g) (median (range)) reported for the following: pE1A-G6k-GnRH-tandem-dimer OVA conjugate (Ac-AHWSY[dK]LRPGAHWSY[dK]LRPGC-NH2; also: dimerized through Cys 21, ovalbumin conjugate)
36 (16-65) g

====

test system: Male piglets; assay: Immunocastration of pigs: testis size and testis weight after immunization; type: in vivo, pig; details: Table 2; effectiveness according to testis weight
Non-standard residues stand in square brackets, D forms with d. pGlu = O=C1CC[C@@H](C(=O)O)N1
Reported number responders/total number by item:

Solved cases below.
1) L7A-G6k-GnRH-tandem ([pGlu]HWSY[dK]ARPGQHWSY[dK]ARPGC-NH2; also: dimer via Cys21) ... 6/7
2) pE1A-G6k-GnRH-tandem-dimer OVA conjugate (Ac-AHWSY[dK]LRPGAHWSY[dK]LRPGC-NH2; also: dimerized through Cys 21, ovalbumin conjugate) ... 7/7
3) P9A-G6k-GnRH-tandem-dimer conjugate ([pGlu]HWSY[dK]LRAGQHWSY[dK]LRAGC-NH2; also: dimerized through Cys 21, ovalbumin conjugate) ... 6/7
4) G10A-G6k-GnRH-tandem ([pGlu]HWSY[dK]LRPAQHWSY[dK]LRPAC-NH2; also: dimerized through Cys 21) ... 7/7
5) S4A-G6k-GnRH-tandem ([pGlu]HWAY[dK]LRPGQHWAY[dK]LRPGC-NH2; also: dimer via Cys21) ... 7/7
6) Y5A-G6k-GnRH-tandem ([pGlu]HWSA[dK]LRPGQHWSA[dK]LRPGC-NH2; also: dimer via Cys21) ... 5/7

Please examine the following record next.
Give the value of number responders/total number reported for the following: R8A-G6k-GnRH-tandem ([pGlu]HWSY[dK]LAPGQHWSY[dK]LAPGC-NH2; also: dimer via Cys21)
7/7
